# Assayed system: T1, rat GIP receptor (rat, UniProt P43219 19-455)
# T1 sequence (looked up): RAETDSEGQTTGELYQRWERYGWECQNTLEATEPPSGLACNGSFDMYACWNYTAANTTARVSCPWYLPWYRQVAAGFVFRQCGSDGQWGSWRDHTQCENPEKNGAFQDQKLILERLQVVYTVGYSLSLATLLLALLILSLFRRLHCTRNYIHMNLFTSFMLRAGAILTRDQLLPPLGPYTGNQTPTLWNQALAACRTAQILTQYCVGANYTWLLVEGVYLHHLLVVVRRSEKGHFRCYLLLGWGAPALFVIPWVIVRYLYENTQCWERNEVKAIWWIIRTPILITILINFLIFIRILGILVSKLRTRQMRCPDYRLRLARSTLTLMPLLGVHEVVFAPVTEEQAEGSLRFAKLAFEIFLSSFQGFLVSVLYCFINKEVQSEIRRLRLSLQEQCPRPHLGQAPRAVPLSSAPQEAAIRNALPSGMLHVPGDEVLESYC
# Assay notes: cell-based or functional assay
Label rule, in plain words: cAMP EC50 of 0.1 nM and up is YES, under 0.1 nM is NO.

Input: Does cAMP EC50 meet or surpass 0.1 nM for IP261 (Fc fusion) YSEGTFTSDYSKLLEEEAVRLFVEWLVKGPGGGGGSGGGGSGGGGSGGGGSATHTCPPCPAPEF ?
Output: YES

Input: Given the entry IP213 (Fc fusion) YSEGTFTSDYSKLLEEEAVRLFIEWLLAGGAAAGGSGSTASSGSGSATGGGGAATHTCPPCPAPEF , answer whether its cAMP EC50 meets or surpasses 0.1 nM.
Output: NO

Input: Item IP357 (Fc fusion) YSEGTFTSDFSKLLEEEAVRLFIEFLLAGGGGGGSGGGGSGGGGSGGGGSATHTCPPC with cAMP EC50 of 0.1 nM or above?
Output: NO

Input: Given the entry IP244 (Fc fusion) YSEGTFTSDVSKLLEEEAVRLFIEWLLAGAPPGGSGSTASSGSGSATGGGGAATHTCPPCPAPEF , answer whether its cAMP EC50 meets or surpasses 0.1 nM.
Output: YES

Input: Confirm if cAMP EC50 reported for the binder IP374 (Fc fusion) YSEGTFTSLYSKLLEEEAVRLFIEWLLAGGGGGGSGGGGSGGGGSGGGGSATHTCPPC is 0.1 nM or above.
Output: YES

Input: # bool: cAMP EC50 of IP361 (Fc fusion) YSEGTFTSDYRILKEEEAVRLFIEWLLAGGGGGGSGGGGSGGGGSGGGGSATHTCPPC >= 0.1 nM
Output: NO

Input: Is reported cAMP EC50 greater than or equal to 0.1 nM here: IP087 (Fc fusion) YSEGTFTSDYSKLLEEEAVRLFIEWLLAGPAAAGGSGSTASSGSGSATGGGGAATHTCPPCPAPEF
Output: YES

Input: Check this binder for cAMP EC50 at or above 0.1 nM: IP354 (Fc fusion) YSEGMHTSDFSKLLEEEAVRLFIEWLLAGGGGGGSGGGGSGGGGSGGGGSATHTCPPC
Output: YES

Input: Check the entry IP272 (Fc fusion) YSEGTFTSDYSKLLEEEAVRLFIEWLLAQKAPPGGSGSTASSGSGSATGGGGAATHTCPPC : does cAMP EC50 equal or exceed 0.1 nM?
Output: NO

Input: Test whether the binder IP379 (Fc fusion) YSEGTHTSDFSKLLEEEAVRLFIEWLLAGGGGGGSGGGGSGGGGSGGGGSATHTCPPC records cAMP EC50 of 0.1 nM or higher.
Output: YES

Input: Is reported cAMP EC50 greater than or equal to 0.1 nM here: IP147 (Fc fusion) YSEGTFTSDYSKLLEEEAVRLFIEWLVKGPAPPGGSGSTASSGSGSATGGGGAATHTCPPCPAPEF
Output: YES

Input: API: above_or_equal(metric=cAMP EC50, cutoff=0.1 nM) for item IP273 (Fc fusion) YSEGTFTSDYSKLLEEEAVRLFIEWLVKGPAAAGGSGSTASSGSGSATGGGGAATHTCPPC
Output: NO

Input: Reported cAMP EC50 reaches at least 0.1 nM for IP293 (Fc fusion) YSEGTFTSDYSKLLEEEAVRCFIECLVKGPGGGGGGGGGGGGGGGGGGGGACPPC ?
Output: YES

Input: Test whether the binder IP355 (Fc fusion) YSEGTHTSLFSKLLEEEAVRLFIEWLLAGGGGGGSGGGGSGGGGSGGGGSATHTCPPC records cAMP EC50 of 0.1 nM or higher.
Output: YES

Input: For this binder, is measured cAMP EC50 0.1 nM or higher? IP212 (Fc fusion) YSEGTFTSDYSKLLEEEAVREFIAWLVKGPAAAGGSGSTASSGSGSATGGGGAATHTCPPCPAPEF
Output: YES

Input: Quick check: does IP259 (Fc fusion) YSEGTFTSDYSKLLEKEAVRLFIEWLVKGPGGGGGSGGGGSGGGGSGGGGSATHTCPPCPAPEF have cAMP EC50 greater than or equal to 0.1 nM?
Output: NO

Input: Would you say IP327 (Fc fusion) YSEGTFTSDYSKLLEEEAVRLFIEWLLAGGGGGGGSGGGGSGGGGSGGGGSGGGGSGGGGSA shows cAMP EC50 at minimum 0.1 nM?
Output: NO

Input: Exam item: decide whether the reported cAMP EC50 for IP403 (Fc fusion) YSEGTHTSDLRILLEEEAVRLFIEKLLAGGGSGGGGSGGGGSGGGGSGGGGSGGGGSGGGGSGGGGSACPPC is at least 0.1 nM.
Output: NO

Input: Exam item: decide whether the reported cAMP EC50 for IP085 (Fc fusion) YSEGTFTSDYSKLLEEEAVRLFIEWLLAGAPPGGSGSTASSGSGSATGGGGAATHTCPPCPAPEF is at least 0.1 nM.
Output: YES

Input: Reported cAMP EC50 at or above 0.1 nM? IP317 (Fc fusion) YSEGTFTSDVSSYLEKQAIDEFIAWLLKGGAAAGGSGSTASSGSGSATGGGGAATHTCPPC
Output: YES

Input: Identify whether the reported cAMP EC50 of the following binder is 0.1 nM or greater: IP280 (Fc fusion) YSEGTFTSDYSKLLEEEAVRLFIEWLVKGGPSSGAPPPSGGGGGSGGGGSGGGGSGGGGSATHTCPPC
Output: NO
